Values were extracted from paper PMC9612383.

- Test system: E. faecalis
- Protocol: Disk diffusion test
- Format: cell-based
- Measurement setup: complex 5 μg, 24 h incubation; diameter including disk (6 mm)
Measured attribute: Inhibition Zone (mm)
The figure you give is taken to be in mm; do not add the unit.

INSERT INTO measurements (compound, val) VALUES
  ('Cn1cc[n+](C)[c]1[Au-][C]#CCOc1c(-c2ccc(Br)cc2)oc2ccccc2c1=O [1b, [Au(Lb)(IMe)] (R = Br; IMe = C5H10N2)]', 12.50),
  ('COc1ccc(-c2oc3ccccc3c(=O)c2OCC#[C][Au-][c]2n(C)cc[n+]2C)cc1 [1d, [Au(Ld)(IMe)] (R = OMe; IMe = C5H10N2)]', 9.47),
  ('CC(C)c1cccc(C(C)C)c1-n1cc[n+](-c2c(C(C)C)cccc2C(C)C)[c]1[Au-][C]#CCOc1c(-c2ccc(Cl)cc2)oc2ccccc2c1=O [2c, [Au(Lc)(IPr)] (R = Cl; IPr = C27H38N2)]', 10.25);

Inquiry: Please report Inhibition Zone for the following compound: CC(C)c1cccc(C(C)C)c1-n1cc[n+](-c2c(C(C)C)cccc2C(C)C)[c]1[Au-][C]#CCOc1c(-c2ccc(Br)cc2)oc2ccccc2c1=O [2b, [Au(Lb)(IPr)] (R = Br; IPr = C27H38N2)]
Reply text: 12.1

* * *

- System: Caco-2 cells
- Protocol: MTT antiproliferative assay
- Format: cell-based, Human
- Measurement setup: Caco-2 cell line, 72 h incubation, mean ± SE
Listed below: log10(IC50) values for each entry.
Note the log scale: values are log10 of IC50 expressed in µM.

Consider the following illustrative entries.
INSERT INTO assay_data (compound, measured_attribute, val) VALUES
  ('CC(C)c1cccc(C(C)C)c1-n1cc[n+](-c2c(C(C)C)cccc2C(C)C)[c]1[Au-][C]#CCOc1c(-c2ccc(Br)cc2)oc2ccccc2c1=O [2b, [Au(Lb)(IPr)] (R = Br; IPr = C27H38N2)]', 'log10(IC50)', 1.73),
  ('CC(C)c1cccc(C(C)C)c1-n1ccn(-c2c(C(C)C)cccc2C(C)C)[c]1=[Au][Cl] [[AuCl(IPr)], reference compound]', 'log10(IC50)', 0.96),
  ('Cn1cc[n+](C)[c]1[Au-][C]#CCOc1c(-c2ccc(Cl)cc2)oc2ccccc2c1=O [1c, [Au(Lc)(IMe)] (R = Cl; IMe = C5H10N2)]', 'log10(IC50)', 1.18);

Inquiry: Please report log10(IC50) for the following compound: Cn1cc[n+](C)[c]1[Au-][C]#CCOc1c(-c2ccc(Br)cc2)oc2ccccc2c1=O [1b, [Au(Lb)(IMe)] (R = Br; IMe = C5H10N2)]
Reply text: 1.36

Inquiry: Please report log10(IC50) for the following compound: CC(=O)OC[C@H]1O[C@@H]([S-])[C@H](OC(C)=O)[C@@H](OC(C)=O)[C@@H]1OC(C)=O.CCP(CC)CC.[Au+] [Auranofin, reference compound]
Reply text: 0.26

* * *

Listed below: Inhibition Zone values for each entry.
- System: S. epidermidis
- Protocol: Disk diffusion test
- Format: cell-based
- Measurement setup: complex 5 μg, 24 h incubation; diameter including disk (6 mm)
The figure you give is taken to be in mm; do not add the unit.

Consider the following illustrative entries.
INSERT INTO results (compound, val) VALUES
  ('Cn1cc[n+](C)[c]1[Au-][C]#CCOc1c(-c2ccc(Br)cc2)oc2ccccc2c1=O [1b, [Au(Lb)(IMe)] (R = Br; IMe = C5H10N2)]', 25.05),
  ('COc1ccc(-c2oc3ccccc3c(=O)c2OCC#[C][Au-][c]2n(C)cc[n+]2C)cc1 [1d, [Au(Ld)(IMe)] (R = OMe; IMe = C5H10N2)]', 17.23);

Inquiry: Please report Inhibition Zone for the following compound: CC(C)c1cccc(C(C)C)c1-n1cc[n+](-c2c(C(C)C)cccc2C(C)C)[c]1[Au-][C]#CCOc1c(-c2ccc(Cl)cc2)oc2ccccc2c1=O [2c, [Au(Lc)(IPr)] (R = Cl; IPr = C27H38N2)]
Reply text: 18.06

Inquiry: Please report Inhibition Zone for the following compound: CC(C)c1cccc(C(C)C)c1-n1cc[n+](-c2c(C(C)C)cccc2C(C)C)[c]1[Au-][C]#CCOc1c(-c2ccc(Br)cc2)oc2ccccc2c1=O [2b, [Au(Lb)(IPr)] (R = Br; IPr = C27H38N2)]
Reply text: 20.95

* * *

- Tested on: panel of Gram-positive and Gram-negative strains
- Protocol: Disk diffusion method, whole panel (summary in words)
- Type: cell-based
- Measurement setup: whole panel, Gram-positive and Gram-negative strains
Measured attribute: antibacterial effect (in words)

INSERT INTO assay_data (molecule, assay_system, val) VALUES
  ('Cn1cc[n+](C)[c]1[Au-][C]#CCOc1c(-c2ccccc2)oc2ccccc2c1=O [1a, [Au(La)(IMe)] (R = H; IMe = C5H10N2)]', 'panel of Gram-positive and Gram-negative strains', 'no antibacterial effect'),
  ('COc1ccc(-c2oc3ccccc3c(=O)c2OCC#[C][Au-][c]2n(-c3c(C(C)C)cccc3C(C)C)cc[n+]2-c2c(C(C)C)cccc2C(C)C)cc1 [2d, [Au(Ld)(IPr)] (R = OMe; IPr = C27H38N2)]', 'panel of Gram-positive and Gram-negative strains', 'no antibacterial effect'),
  ('Cn1cc[n+](C)[c]1[Au-][C]#CCOc1c(-c2ccc(Cl)cc2)oc2ccccc2c1=O [1c, [Au(Lc)(IMe)] (R = Cl; IMe = C5H10N2)]', 'panel of Gram-positive and Gram-negative strains', 'no antibacterial effect');

* * *

- Protocol: n-Octanol-water distribution coefficient, shake-flask
- Assay type: physicochemical
- Measurement setup: n-octanol / buffered aqueous solution pH 7.4
Please note: MET applies when LogP7.4 (distribution coefficient) is 1 or greater, and NOT MET applies otherwise.

INSERT INTO assay_data (molecule, discrete_label) VALUES
  ('CC(C)c1cccc(C(C)C)c1-n1cc[n+](-c2c(C(C)C)cccc2C(C)C)[c]1[Au-][C]#CCOc1c(-c2ccc(Br)cc2)oc2ccccc2c1=O [2b, [Au(Lb)(IPr)] (R = Br; IPr = C27H38N2)]', 'MET'),
  ('CC(C)c1cccc(C(C)C)c1-n1cc[n+](-c2c(C(C)C)cccc2C(C)C)[c]1[Au-][C]#CCOc1c(-c2ccc(Cl)cc2)oc2ccccc2c1=O [2c, [Au(Lc)(IPr)] (R = Cl; IPr = C27H38N2)]', 'MET'),
  ('Cn1cc[n+](C)[c]1[Au-][C]#CCOc1c(-c2ccc(Cl)cc2)oc2ccccc2c1=O [1c, [Au(Lc)(IMe)] (R = Cl; IMe = C5H10N2)]', 'MET');

Inquiry: Reported LogP7.4 (distribution coefficient) reaches at least 1 for Cn1cc[n+](C)[c]1[Au-][C]#CCOc1c(-c2ccccc2)oc2ccccc2c1=O [1a, [Au(La)(IMe)] (R = H; IMe = C5H10N2)] ?
Reply text: NOT MET

Inquiry: Reported LogP7.4 (distribution coefficient) reaches at least 1 for COc1ccc(-c2oc3ccccc3c(=O)c2OCC#[C][Au-][c]2n(C)cc[n+]2C)cc1 [1d, [Au(Ld)(IMe)] (R = OMe; IMe = C5H10N2)] ?
Reply text: NOT MET
